Reported activation values are given for each entry in this list.
test system: Nuclear hormone receptor DAF-12 (Heterodera glycines), GAL4 fusion; assay: H. glycines DAF-12 receptor agonists, primary screen, cell-based, luminescence, HEK293, GAL4 fusion, UAS-luciferase (AID 687014); conditions: HEK293 GAL4-hgDAF12 UAS-luciferase reporter, agonist luminescence; at 6.8 µM; stronger effect = higher value; normalized to butyrate control;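 further: 0% = DMSO wells and 100% = sodium butyrate wells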
The whole screen tested about 370,000 compounds, of which about 6,800 (1.8%) were called active. The sample as a whole holds a higher share of actives than the screen did.
measuredAttribute: activation (%)

compound: Cc1ccc2nc(-c3cccnc3)c(NC3CCCC3)n2c1
targetEntity: Nuclear hormone receptor DAF-12 (Heterodera glycines), GAL4 fusion
measuredAttribute: activation
val: -2.27

compound: O=C(NCc1ccccc1)[C@H]1CCCN1C(=O)[C@H]1CCCN1C(=O)c1cc(F)cc(F)c1
targetEntity: Nuclear hormone receptor DAF-12 (Heterodera glycines), GAL4 fusion
measuredAttribute: activation
val: -0.18

compound: O=Cc1ccc(OCc2cn3ccccc3n2)cc1
targetEntity: Nuclear hormone receptor DAF-12 (Heterodera glycines), GAL4 fusion
measuredAttribute: activation
val: 12.9

compound: COc1ccccc1Cc1c(-c2ccc(F)cc2)nc2ccc(C)cn12
targetEntity: Nuclear hormone receptor DAF-12 (Heterodera glycines), GAL4 fusion
measuredAttribute: activation
val: 9.36

compound: O=C(NC1CCCCCC1)C1CCN(C(=O)c2ccc(Cl)cc2)CC1
targetEntity: Nuclear hormone receptor DAF-12 (Heterodera glycines), GAL4 fusion
measuredAttribute: activation
val: -2.28

compound: COc1ccc(CNS(=O)(=O)c2cc(Br)ccc2Br)cc1
targetEntity: Nuclear hormone receptor DAF-12 (Heterodera glycines), GAL4 fusion
measuredAttribute: activation
val: 1.03

compound: COC(=O)[C@]12C[C@H](CC(=O)NCCCCc3ccccc3)C(=O)N(Cc3ccc4c(c3)OCO4)C1=C[C@H](C(C)(C)C)O[C@@H]2C
targetEntity: Nuclear hormone receptor DAF-12 (Heterodera glycines), GAL4 fusion
measuredAttribute: activation
val: 0.98

compound: O=C(NC(=S)NC1CCCCC1)c1ccc(Cl)cc1
targetEntity: Nuclear hormone receptor DAF-12 (Heterodera glycines), GAL4 fusion
measuredAttribute: activation
val: 14.2

compound: CC(C)CC(=O)N1CCC(O)(CS(=O)(=O)Cc2ccccc2)CC1
targetEntity: Nuclear hormone receptor DAF-12 (Heterodera glycines), GAL4 fusion
measuredAttribute: activation
val: -2.29

compound: Cc1cc(NS(=O)(=O)c2ccc(NC(=O)CSc3nnc(SCc4ccc(F)cc4)s3)cc2)nc(C)n1
targetEntity: Nuclear hormone receptor DAF-12 (Heterodera glycines), GAL4 fusion
measuredAttribute: activation
val: 1.18

compound: COC(=O)C1CN(CCc2ccccc2)CCS(=O)(=O)N1Cc1cccc(Cl)c1 (configuration not stated)
targetEntity: Nuclear hormone receptor DAF-12 (Heterodera glycines), GAL4 fusion
measuredAttribute: activation
val: -0.51

compound: COc1ccc2c(C(C)c3ccc(N)cc3)cn(C)c2c1 (configuration not stated)
targetEntity: Nuclear hormone receptor DAF-12 (Heterodera glycines), GAL4 fusion
measuredAttribute: activation
val: 0.29

compound: O=C1Oc2ccccc2C(=O)/C1=C/c1ccccc1O
targetEntity: Nuclear hormone receptor DAF-12 (Heterodera glycines), GAL4 fusion
measuredAttribute: activation
val: -1.59

compound: CC(=O)c1ccc(N2CCN(CC(O)c3ccccc3)CC2)cc1 (configuration not stated)
targetEntity: Nuclear hormone receptor DAF-12 (Heterodera glycines), GAL4 fusion
measuredAttribute: activation
val: -0.45

compound: COc1cc(NC(=O)CN(C)S(=O)(=O)c2ccc3nc(C)sc3c2)cc(OC)c1
targetEntity: Nuclear hormone receptor DAF-12 (Heterodera glycines), GAL4 fusion
measuredAttribute: activation
val: -1.83

compound: COc1cccc(-c2nnc(N(C)C(=O)c3ccno3)s2)c1
targetEntity: Nuclear hormone receptor DAF-12 (Heterodera glycines), GAL4 fusion
measuredAttribute: activation
val: 3.08

compound: COc1ccc2c(c1)O/C(=C\c1ccccc1O)C2=O
targetEntity: Nuclear hormone receptor DAF-12 (Heterodera glycines), GAL4 fusion
measuredAttribute: activation
val: 13

compound: CC(=O)N1Cc2ccccc2CC1C(=O)O (configuration not stated)
targetEntity: Nuclear hormone receptor DAF-12 (Heterodera glycines), GAL4 fusion
measuredAttribute: activation
val: 2.94

compound: CCCCCCCCN1C(=O)[C@@H](CC(=O)N2CCN(C(=O)OCC)CC2)C[C@@]2(C(=O)OC)C1=C[C@H](C1CCCC1)O[C@@H]2C
targetEntity: Nuclear hormone receptor DAF-12 (Heterodera glycines), GAL4 fusion
measuredAttribute: activation
val: -1.38

compound: COC(=O)C[C@H]1CC[C@H]2[C@H](COc3ccc(NC(=O)C4CC4)cc3C(=O)N2C)O1
targetEntity: Nuclear hormone receptor DAF-12 (Heterodera glycines), GAL4 fusion
measuredAttribute: activation
val: 1.59

compound: COc1ccccc1C1C(C(N)=O)=C(C)Nc2nc(CCCO)nn21 (configuration not stated)
targetEntity: Nuclear hormone receptor DAF-12 (Heterodera glycines), GAL4 fusion
measuredAttribute: activation
val: 0.62

compound: O=C(CCS(=O)(=O)c1cccc2nsnc12)N1CCN(c2ccccc2F)CC1
targetEntity: Nuclear hormone receptor DAF-12 (Heterodera glycines), GAL4 fusion
measuredAttribute: activation
val: 0.1

====

test system: Nuclear hormone receptor DAF-12 (Heterodera glycines), GAL4 fusion; assay: H. glycines DAF-12 receptor agonists, primary screen, cell-based, luminescence, HEK293, GAL4 fusion, UAS-luciferase (AID 687014); details: HEK293 GAL4-hgDAF12 UAS-luciferase reporter, agonist luminescence; at 6.8 µM; normalized to butyrate control;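 further: 0% = DMSO wells and 100% = sodium butyrate wells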
The whole screen tested about 370,000 compounds, of which about 6,800 (1.8%) were called active.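 The calls were made as follows: active = activation above a cutoff set at the mean of all screened compounds plus 3 SD (cut at about 10% in these data); inactive = the rest.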 For the sample, actives were picked, then their nearest neighbours and some compounds at random.
Classes used: active, inactive

compound: Cc1cc(O)c(NC(=O)c2ccc(C)c([N+](=O)[O-])c2)cc1C
assignedLabel: active

compound: CCOC(=O)C1=C(C(=O)OCC)C2N(Cc3ccc(C#N)cc3)c3ccccc3[C@@]23C[C@@H](C(=O)OC)N(S(=O)(=O)c2ccc(F)cc2)C3=N1 (stereo not given in full)
assignedLabel: inactive

compound: O=C(Nc1ccc(-c2nnc(-c3ccccc3)o2)cc1)C1CCCO1 (stereo not given)
assignedLabel: active

compound: CC(C)c1ccc(C=NNc2ccc([N+](=O)[O-])cn2)cc1
assignedLabel: active

compound: CC(=O)C1=C(C)N(Cc2ccccc2)C(=S)NC1c1cccc(Br)c1 (stereo not given)
assignedLabel: inactive

compound: CC(C)(C)NS(=O)(=O)c1ccc(NC(=O)C2CCCO2)cc1 (stereo not given)
assignedLabel: inactive

compound: CCCCCCCCN1C(=O)[C@@H](CC(=O)NCCCC)C[C@@]2(C(=O)OC)C1=C[C@H](C(C)(C)C)O[C@@H]2C
assignedLabel: inactive

compound: CC(C)c1ccc(/C=C2\NC(=O)NC2=O)cc1
assignedLabel: inactive

compound: COc1ccc(CN2C(=O)N3Cc4cc(OC)ccc4C3CS2(=O)=O)cc1 (stereo not given)
assignedLabel: inactive

compound: CN(CCc1ccccc1)c1ccc([N+](=O)[O-])cn1
assignedLabel: inactive

====

tested on: Nuclear hormone receptor DAF-12 (Heterodera glycines), GAL4 fusion; test: H. glycines DAF-12 receptor agonists, primary screen, cell-based, luminescence, HEK293, GAL4 fusion, UAS-luciferase (AID 687014); details: HEK293 GAL4-hgDAF12 UAS-luciferase reporter, agonist luminescence; at 6.8 µM; stronger effect = higher value; normalized to butyrate control;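 further: 0% = DMSO wells and 100% = sodium butyrate wells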
Out of some 370,000 compounds screened, about 6,800 (1.8%) were called active. Only a selection was taken, and actives are over-represented in it overall.

compound: CC1C/C(=N/NC(=O)c2cccs2)CC(C)(C)C1 (stereo unspecified)
resultUnits: %
activation: 14
--
compound: Cc1ccc(N2C(=O)c3ccccc3C2(O)c2ncc[nH]2)cc1 (stereo unspecified)
resultUnits: %
activation: 0.14
--
compound: O=C(NCCCc1ccccc1)[C@H](Cc1ccccc1)NC1(C(=O)NCCc2c[nH]c3ccccc23)CCC1
resultUnits: %
activation: -3.84
--
compound: CCc1ccc(C(=O)NN=C2CCCCCC2)s1
resultUnits: %
activation: 3.37
--
compound: CCOC(=O)C1CCN(C(=O)COC(=O)C2CCN(S(=O)(=O)c3ccc4c(c3)OCCO4)CC2)CC1
resultUnits: %
activation: 1.65
--
compound: CCN1CCC(=NNC(=O)c2ccc(C)c([N+](=O)[O-])c2)CC1
resultUnits: %
activation: -0.03

====

tested on: Nuclear hormone receptor DAF-12 (Heterodera glycines), GAL4 fusion; assay: H. glycines DAF-12 receptor agonists, primary screen, cell-based, luminescence, HEK293, GAL4 fusion, UAS-luciferase (AID 687014); conditions: HEK293 GAL4-hgDAF12 UAS-luciferase reporter, agonist luminescence; at 6.8 µM; stronger effect = higher value; normalized to butyrate control;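 further: 0% = DMSO wells and 100% = sodium butyrate wells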
Among all 370,000 compounds or so, about 6,800 (1.8%) were called active. The list comes from a sample in which actives are over-represented; it also holds close analogues and randomly drawn compounds.

compound: CC(=O)c1ccc(S(=O)(=O)NCC2CCN(C(=O)C(=O)c3cccs3)CC2)cc1
activation: -0.16% (inactive)

compound: NS(=O)(=O)c1ccc(CCNC(=O)CNC(=O)Cc2ccccc2)cc1
activation: 0.79% (inactive)

compound: O=C(c1ccco1)N1CCN=C1SCc1cccc(Cl)c1
activation: -5.1% (inactive)

compound: COC(=O)C12C=C3CC(c4ccccc4)=C3C(=O)N1Cc1[nH]c3ccccc3c1C2 (stereo not given)
activation: -0.17% (inactive)

compound: O=S1(=O)c2c(cccc2N2CC[C@H](O)C2)O[C@@H]2CCN1C2
activation: -2.37% (inactive)

compound: Cc1ccc(S(=O)(=O)N(C)c2ccc(OCC(=O)OCC(=O)N(CC#N)c3ccccc3)cc2)cc1
activation: -0.04% (inactive)

compound: COc1ccc(-n2c(SCC(=O)Nc3ccc(C)c(Cl)c3)nc3ccccc3c2=O)cc1
activation: -4.03% (inactive)

compound: O=C(NCc1ccccc1)[C@@H]1CCCN1C(=O)[C@H]1CCCN1C(=O)c1cccc(Cl)c1
activation: 2.12% (inactive)

compound: CN(C)Cc1cn(-c2ccc(-c3noc4c3C(=O)N(CC(=O)N3CCOCC3)CC4)cc2)nn1
activation: -1.17% (inactive)

compound: OCC[C@H]1C[C@@H](O)[C@H](O)[C@]2(OCCCc3ccccc32)O1
activation: -1.3% (inactive)
